Give pIC50 for every item shown.
measurement.target: recombinant SARS-CoV-2 Main protease (Mpro) (Severe acute respiratory syndrome coronavirus 2 (2019-nCoV) (SARS-CoV-2))
method: Cov Mpro Biochemical IC50 Assay
test.conditions: recombinant SARS-CoV-2 Mpro 7.5 nM, fluorogenic peptide substrate 40 μM; read-out: MPro IC50
// returns pIC50 (minus log10 of molar concentration), number only

Lab note: measured pIC50 of COc1ccc(Cl)c(-c2cc3[nH]c(=O)n(-c4cncc(CC(=O)N5CCOCC5)c4)c(=O)c3s2)c1 [Example 612] was 7.91

The reported pIC50 of the molecule COc1cc(-c2cc3[nH]c(=O)n(-c4cnnc5ccccc45)c(=O)c3s2)c(Cl)cc1F [Example 745] was 7.04

Looking up COc1cc(-c2cc3[nH]c(=O)n(-c4cncc5c4CCCC5)c(=O)c3s2)c(Cl)cc1F [Example 729] , I see its pIC50 listed as 8.21

Recorded result, Cc1cc(-n2c(=O)c3sc(-c4ccccc4Cl)cc3n(CCC#N)c2=O)cnc1F [Example 825] , pIC50: 7.47

Entry Cn1ncc2c(-n3c(=O)[nH]c4cc(-c5ccccc5Cl)sc4c3=O)cncc21 [Example 491] ; pIC50 = 7.76

Consider Cc1ccc(-c2cc3c(s2)c(=O)n(-c2cncc4cnn(C)c24)c(=O)n3CCC#N)c(C#N)c1 [Example 840] . Its measured pIC50 is 7.77

---

measurement.target: recombinant SARS-CoV-2 Main protease (Mpro) (Severe acute respiratory syndrome coronavirus 2 (2019-nCoV) (SARS-CoV-2))
method: Cov Mpro Biochemical IC50 Assay
test.conditions: recombinant SARS-CoV-2 Mpro 7.5 nM, fluorogenic peptide substrate 40 μM; read-out: MPro IC50
parameter.measured: pIC50
Quick note: pIC50 means taking -log10 of the concentration in moles per liter.

Short answer for CCn1ncc2cncc(-n3c(=O)c4sc(-c5cc(OC)c(F)cc5Cl)cc4n(CCC#N)c3=O)c21 [Example 910] : pIC50 was 8.36

The recorded pIC50 for entry COc1cc(-c2cc3c(s2)c(=O)n(-c2cccnn2)c(=O)n3CCC#N)c(Cl)cc1F [Example 989] equals 8.14

Just so you know, measured pIC50 for Cc1nc2cncc(-n3c(=O)c4sc(-c5ccc(F)cc5Cl)cc4n(CCC#N)c3=O)c2n1C [Example 853] came out at 7.57

Measured pIC50, COc1cc(-c2cc3[nH]c(=O)n(-c4cncc5cc(C(=O)N(C)C)sc45)c(=O)c3s2)c(Cl)cc1F [Example 1010] : 8.48

Form: molecule = COc1cc(-c2cc3c(s2)c(=O)n(-c2cncc(C#CC(C)(C)S(C)(=O)=O)c2)c(=O)n3CCC#N)c(Cl)cc1F [Example 1039] ; pIC50 = 7.93

pIC50 reported for this molecule Cn1ncc2cncc(-n3c(=O)c4sc(-c5ccccc5Cl)cc4n(CCC#N)c3=O)c21 [Example 781] : 8.30

---

measurement.target: recombinant SARS-CoV-2 Main protease (Mpro) (Severe acute respiratory syndrome coronavirus 2 (2019-nCoV) (SARS-CoV-2))
method: Cov Mpro Biochemical IC50 Assay
test.conditions: recombinant SARS-CoV-2 Mpro 7.5 nM, fluorogenic peptide substrate 40 μM; read-out: MPro IC50
Output schema: class label derived from IC50. Mapping: lower segment = under 9 nM, middle segment = from 9 nM up to 30 nM, upper segment = 30 nM and over

Quick check: band for Cn1nnc2cncc(-n3c(=O)c4sc(-c5cc(F)c(F)cc5Cl)cc4n(CCC#N)c3=O)c21
upper segment

Please let me know in which category the item COc1cc(-c2cc3c(s2)c(=O)n(-c2cncc4nnn(C(C)C)c24)c(=O)n3CCC#N)c(Cl)cc1F belongs.
middle segment

Which category does the recorded IC50 put O=c1[nH]c2cc(-c3ccccc3Cl)sc2c(=O)n1-c1cncc2ccc(N3CCC(F)(F)C3)cc12 in?
lower segment

Lab note: which band did Cn1cnc2cncc(-n3c(=O)c4sc(-c5cc(F)c(F)cc5Cl)cc4n(CCC#N)c3=O)c21 land in?
middle segment

Hi there! Could you help me figure out the category for COc1cc(-c2cc3c(s2)c(=O)n(-c2cncc4ccccc24)c(=O)n3Cc2ncn(C)n2)c(Cl)cc1F please?
upper segment

Could you tell me which band N#CCCn1c(=O)n(-c2cncc3ccccc23)c(=O)c2sc(-c3ccccc3Cl)cc21 belongs to?
lower segment

Into which category would you place Cn1ncc2cncc(-n3c(=O)c4sc(-c5ccc(C(F)(F)F)cc5C#N)cc4n(CCC#N)c3=O)c21 ?
upper segment

Consider CNC(=O)CCn1c(=O)n(-c2cncc3ccccc23)c(=O)c2sc(-c3ccccc3Cl)cc21 . To which IC50 class does it belong?
upper segment

Please classify: COc1cc(-c2cc3c(s2)c(=O)n(-c2nncc4c(C)nn(C)c24)c(=O)n3CCC#N)c(Cl)cc1F
middle segment

Which class is correct for the following molecule? COCCn1cc2cncc(-n3c(=O)[nH]c4cc(-c5cc(OC)c(F)cc5Cl)sc4c3=O)c2n1
lower segment

GET /class?item= N#CCCn1c(=O)n(-c2cncc3ccc(C#N)cc23)c(=O)c2sc(-c3ccc(F)cc3Cl)cc21
middle segment

Determine which band this molecule sits in: COc1cc(-c2cc3c(s2)c(=O)n(-c2cncc4ccccc24)c(=O)n3CC#N)c(Cl)cc1F (single isomer, unassigned) [Example 633]
lower segment

Hi, small favor: classify COc1cc(-c2cc3[nH]c(=O)n(-c4cncc5ccccc45)c(=O)c3cc2OC)c(Cl)cc1F (single isomer, unassigned) [Example 1055] by its IC50 when you get a moment.
upper segment

Could you tell me which band Cn1nnc2cncc(-n3c(=O)c4sc(-c5ccc(F)cc5Cl)cc4n(CCC#N)c3=O)c21 [Example 773] belongs to?
middle segment

Given COc1cc(-c2cc3c(s2)c(=O)n(-c2cncc(F)c2C)c(=O)n3CCC#N)c(C#N)cc1F , name the class its IC50 places it in.
middle segment

Which class is correct for the following molecule? COc1cc(-c2cc3c(s2)c(=O)n(-c2cncc4ccccc24)c(=O)n3CC(C)C#N)c(Cl)cc1F (centres unmarked)
middle segment

Note: place this molecule into its band. Item: COc1ccc(Cl)c(-c2cc3[nH]c(=O)n(-c4cncc5cc(OC)ccc45)c(=O)c3s2)c1
upper segment

For this molecule, which bin applies? Cc1ccc2cncc(-n3c(=O)c4sc(-c5ccccc5Cl)cc4n(CCC#N)c3=O)c2n1
lower segment

Band assignment needed for Cn1cnc(Cn2c(=O)n(-c3cncc4ccccc34)c(=O)c3sc(-c4ccccc4Cl)cc32)n1 (single isomer, unassigned) [Example 478] please.
upper segment

Band of CO[C@H]1CCN(c2ccc3cncc(-n4c(=O)[nH]c5cc(-c6ccccc6Cl)sc5c4=O)c3c2)C1 ?
lower segment

Kindly state the category for this molecule: COc1cc(-c2cc3[nH]c(=O)n(-c4cncc5cccc(F)c45)c(=O)c3s2)c(Cl)cc1F (single isomer, unassigned) [Example 899]
lower segment

Classify this molecule: COc1ccc(Cl)c(-c2cc3[nH]c(=O)n(-c4cncc5cccc(Cl)c45)c(=O)c3s2)c1
lower segment

Categorize the following entry: N#CCn1c(=O)n(-c2cncc3ccccc23)c(=O)c2sc(-c3cc(F)ccc3Cl)cc21
lower segment

Could you tell me which band COc1cc(-c2cc3c(s2)c(=O)n(-c2cnc(F)c(C)c2)c(=O)n3CCC#N)c(Cl)cc1F belongs to?
middle segment

Lab note: which band did COc1cc(-c2cc3c(s2)c(=O)n(-c2cncc4nccn24)c(=O)n3CCC#N)c(Cl)cc1F land in?
middle segment

Band for COc1ccc(C#N)c(-c2ccc3c(=O)n(-c4cncc5ccc(N6CCOCC6)cc45)c(=O)[nH]c3c2)c1 ?
middle segment

Sort into band: COCCn1c(=O)n(-c2cncc3ccccc23)c(=O)c2sc(-c3ccccc3Cl)cc21
upper segment

Textbook exercise: identify the category of the molecule given here, COc1cc(-c2cc3[nH]c(=O)n(-c4cncc5scc(C)c45)c(=O)c3s2)c(Cl)cc1F [Example 611] , according to its measured value.
lower segment

Please let me know in which category the item O=c1[nH]c2cc(-c3ccccc3Cl)sc2c(=O)n1-c1cncc2ccc(N3CCOCC3)cc12 (single isomer, unassigned) [Example 443] belongs.
middle segment
